# assay_summary: in vivo
# applied_conditions: rat, po, 10 mg/kg
assay_endpoint: AUC (µM·h)

Sample records with AUC:
# smiles_structure, assay_endpoint, observed_result
data = [
    ("CSc1sc(-c2cc[nH]n2)c2c1C(=O)NCC2", "AUC", 14),
    ("CSc1sc(-c2cc[nH]n2)c2c1C(=O)CCC2", "AUC", 3.8),
]

I = CC1(C)CC(=O)c2c(SC3CCCC3)sc(-c3cc[nH]n3)c2C1
II = CCCSc1sc(-c2cc[nH]n2)c2c1C(=O)NC[C@@H]2C
Ask: I'm curious whether I or II has the smaller AUC number. Which is it? Return value: the label identifying the chosen record.
Reply: I

Just for reference, ChEMBL document CHEMBL3797078 is where these values come from.
